Hello, the source for this data is ChEMBL document CHEMBL1145882, in case you need it.

assay: Cmax value at 5 mg/kg po was determined in rat; format: ADME, organism-based; set-up: dose 5 mg/kg, route oral; conditions: in vivo
Property Measured: Cmax (µM)
Record the value in µM, omitting the unit from your answer.

Exercise: Looking for the measured Cmax of C[C@@H](Cc1ccc(F)c(F)c1)C(=O)N[C@H]1N=C(c2ccc3c(c2)OCO3)c2ccccc2N(CC(N)=O)C1=O , can you help?
Solution: 0.9

* * *

target: Gamma-secretase; test: In vitro inhibition of gamma secretase.
Property Measured: IC50 (nM)
Record the value in nM, omitting the unit from your answer.

Structure Notation	Property Measured	Uom	Reported Measurement
C[C@@H](Cc1ccc(F)c(F)c1)C(=O)N[C@H]1N=C(c2ccc3c(=O)[nH]ccc3c2)c2ccccc2N(C)C1=O	IC50	nM	0.2
COC(=O)CN1C(=O)[C@@H](NC(=O)[C@@H](C)Cc2ccc(F)c(F)c2)N=C(c2ccc3c(c2)OCO3)c2ccccc21	IC50	nM	12.7
C[C@@H](Cc1ccc(F)c(F)c1)C(=O)N[C@H]1N=C(c2ccc3c(c2)OCO3)c2ccccc2NC1=O	IC50	nM	1.8
CNC(=O)CN1C(=O)[C@@H](NC(=O)[C@@H](C)Cc2ccc(F)c(F)c2)N=C(c2ccc3c(c2)OCO3)c2ccccc21	IC50	nM	1.8
C[C@@H](Cc1ccc(F)c(F)c1)C(=O)N[C@H]1N=C(c2ccc3c(c2)CCC3=O)c2ccccc2N(C)C1=O	IC50	nM	3.6

Exercise: Looking for the measured IC50 of CC(=O)CCN1C(=O)[C@@H](NC(=O)[C@@H](C)Cc2ccc(F)c(F)c2)N=C(c2ccc3c(c2)OCO3)c2ccccc21 , can you help?
Solution: 3.7

Exercise: Looking for the measured IC50 of C[C@@H](Cc1ccc(F)c(F)c1)C(=O)N[C@H]1N=C(c2ccc3c(c2)CCN(C)C3=O)c2ccccc2N(C)C1=O , can you help?
Solution: 1880

Exercise: Looking for the measured IC50 of C[C@@H](Cc1ccc(F)c(F)c1)C(=O)N[C@H]1N=C(c2ccc3c(c2)CCNC3=O)c2ccccc2N(C)C1=O , can you help?
Solution: 0.3

Exercise: Looking for the measured IC50 of C[C@@H](Cc1ccc(F)c(F)c1)C(=O)N[C@H]1N=C(c2ccc3c(c2)OCO3)c2ccccc2N(CC(=O)N(C)C)C1=O , can you help?
Solution: 5.5

Exercise: Looking for the measured IC50 of C[C@@H](Cc1ccc(F)c(F)c1)C(=O)N[C@H]1N=C(c2ccc3c(c2)OCO3)c2ccccc2N(CC(N)=O)C1=O , can you help?
Solution: 13.2

* * *

biological target: Gamma-secretase; assay: In vitro inhibition of gamma secretase.
Property Measured: IC50

Known results for molecules:
Molecule	IC50
C[C@@H](Cc1ccc(F)c(F)c1)C(=O)N[C@H]1N=C(c2ccc3c(c2)OC(F)(F)O3)c2ccccc2N(C)C1=O	28 nM
C[C@@H](Cc1ccc(F)c(F)c1)C(=O)NC1N=C(c2ccc(C(N)=O)cc2)c2ccccc2N(C)C1=O (stereo partly drawn)	0.49 nM

Exercise: Looking for the measured IC50 of C[C@@H](Cc1ccc(F)c(F)c1)C(=O)N[C@H]1N=C(c2ccc3c(c2)CCCC3=O)c2ccccc2N(C)C1=O , can you help?
Solution: 2.2 nM

Exercise: Looking for the measured IC50 of C[C@@H](Cc1ccc(F)c(F)c1)C(=O)N[C@H]1N=C(c2ccc3c(c2)OCO3)c2ccccc2N(CCO)C1=O , can you help?
Solution: 0.9 nM

Exercise: Looking for the measured IC50 of C[C@@H](Cc1ccc(F)c(F)c1)C(=O)N[C@H]1N=C(c2ccc3c(=O)ccoc3c2)c2ccccc2N(C)C1=O , can you help?
Solution: 1.2 nM

Exercise: Looking for the measured IC50 of C[C@@H](Cc1ccc(F)c(F)c1)C(=O)N[C@H]1N=C(c2ccc3c(c2)OCCO3)c2ccccc2N(C)C1=O , can you help?
Solution: 4.7 nM

Exercise: Looking for the measured IC50 of C[C@@H](Cc1ccc(F)c(F)c1)C(=O)N[C@H]1N=C(c2ccc3c(c2)OCO3)c2ccccc2N(C)C1=O , can you help?
Solution: 13.2 nM

Exercise: Looking for the measured IC50 of C[C@@H](Cc1ccc(F)c(F)c1)C(=O)N[C@H]1N=C(c2ccc3c(c2)CCC(=O)N3)c2ccccc2N(C)C1=O , can you help?
Solution: 101 nM
